Assay summary: Tmax in Sprague-Dawley rat at 10 mg/kg, po by LC-MS/MS analysis
Type: ADME, organism-based
Parameters: dose 10 mg/kg, route oral
Condition notes: in vivo
Property name: Tmax
Don't forget the unit after the number, please.

## Input Given `Cc1cc(C(=O)N2CCc3c(sc(NCc4ccccc4)c3C#N)C2)[nH]n1` , state its recorded Tmax.
## Output 1.2 h

====

Tested system: CYP2C9 (Homo sapiens)
Sequence (P11712 whole entry): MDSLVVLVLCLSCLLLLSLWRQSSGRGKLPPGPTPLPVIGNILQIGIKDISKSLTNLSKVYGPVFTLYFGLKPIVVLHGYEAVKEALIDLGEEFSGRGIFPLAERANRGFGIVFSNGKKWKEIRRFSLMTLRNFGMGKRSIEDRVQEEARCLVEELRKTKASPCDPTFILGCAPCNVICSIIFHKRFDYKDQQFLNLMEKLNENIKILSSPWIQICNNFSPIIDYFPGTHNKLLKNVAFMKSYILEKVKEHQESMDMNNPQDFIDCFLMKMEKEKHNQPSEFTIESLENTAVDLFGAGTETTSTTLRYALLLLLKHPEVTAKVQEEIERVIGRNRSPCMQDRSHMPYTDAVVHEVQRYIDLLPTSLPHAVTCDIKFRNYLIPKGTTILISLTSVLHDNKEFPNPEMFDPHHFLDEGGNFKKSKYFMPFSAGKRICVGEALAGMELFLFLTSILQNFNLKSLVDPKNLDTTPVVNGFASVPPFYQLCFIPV
Assay summary: Inhibition of recombinant human CYP2C9 assessed as remaining activity at 10 uM preincubated for 5 mins followed by substrate and NADP addition measured after 20 mins by fluorescence assay relative to control
Assay type: ADME
Condition notes: read-out: Activity
Property name: activity at 20 min, 10 µM
Don't forget the unit after the number, please.

Below: 4 compounds and their reported activity at 20 min, 10 µM.
> print(dat)
                              sample.smiles  measurement
1  Cc1cccc(C(=O)N2CCc3c(sc(NCc4ccccc4)c3C#N)C2)c1        4.33%
2  COc1cccc(CNc2sc3c(c2C#N)CCN(C(=O)c2ccc(F)cc2)C3)c1        6.46%
3  N#Cc1c(NCc2ccccc2)sc2c1CCN(C(=O)c1ccc(F)cc1)C2        5.48%
4  Cc1cc(C(=O)N2CCc3c(sc(NCc4ccccc4)c3C#N)C2)[nH]n1        6.77%

Proceed to the following item.
## Input Given `N#Cc1c(NCc2ccc(F)cc2)sc2c1CCN(C(=O)c1ccccc1)C2` , state its recorded activity at 20 min, 10 µM.
## Output 5.48%

====

Assay summary: Drug excretion in Sprague-Dawley rat at 10 mg/kg, iv by LC-MS/MS analysis
Format: ADME, organism-based
Design: dose 10 mg/kg, route intravenous
Condition notes: in vivo, read-out: Drug excretion
Property name: dose excreted (%)
Write the number in % without appending the unit.

## Input Given `Cc1cc(C(=O)N2CCc3c(sc(NCc4ccccc4)c3C#N)C2)[nH]n1` , state its recorded dose excreted.
## Output 0

====

Tested system: Metabotropic glutamate receptor 1 (Homo sapiens)
Sequence (Q13255 19-1194 limits assumed): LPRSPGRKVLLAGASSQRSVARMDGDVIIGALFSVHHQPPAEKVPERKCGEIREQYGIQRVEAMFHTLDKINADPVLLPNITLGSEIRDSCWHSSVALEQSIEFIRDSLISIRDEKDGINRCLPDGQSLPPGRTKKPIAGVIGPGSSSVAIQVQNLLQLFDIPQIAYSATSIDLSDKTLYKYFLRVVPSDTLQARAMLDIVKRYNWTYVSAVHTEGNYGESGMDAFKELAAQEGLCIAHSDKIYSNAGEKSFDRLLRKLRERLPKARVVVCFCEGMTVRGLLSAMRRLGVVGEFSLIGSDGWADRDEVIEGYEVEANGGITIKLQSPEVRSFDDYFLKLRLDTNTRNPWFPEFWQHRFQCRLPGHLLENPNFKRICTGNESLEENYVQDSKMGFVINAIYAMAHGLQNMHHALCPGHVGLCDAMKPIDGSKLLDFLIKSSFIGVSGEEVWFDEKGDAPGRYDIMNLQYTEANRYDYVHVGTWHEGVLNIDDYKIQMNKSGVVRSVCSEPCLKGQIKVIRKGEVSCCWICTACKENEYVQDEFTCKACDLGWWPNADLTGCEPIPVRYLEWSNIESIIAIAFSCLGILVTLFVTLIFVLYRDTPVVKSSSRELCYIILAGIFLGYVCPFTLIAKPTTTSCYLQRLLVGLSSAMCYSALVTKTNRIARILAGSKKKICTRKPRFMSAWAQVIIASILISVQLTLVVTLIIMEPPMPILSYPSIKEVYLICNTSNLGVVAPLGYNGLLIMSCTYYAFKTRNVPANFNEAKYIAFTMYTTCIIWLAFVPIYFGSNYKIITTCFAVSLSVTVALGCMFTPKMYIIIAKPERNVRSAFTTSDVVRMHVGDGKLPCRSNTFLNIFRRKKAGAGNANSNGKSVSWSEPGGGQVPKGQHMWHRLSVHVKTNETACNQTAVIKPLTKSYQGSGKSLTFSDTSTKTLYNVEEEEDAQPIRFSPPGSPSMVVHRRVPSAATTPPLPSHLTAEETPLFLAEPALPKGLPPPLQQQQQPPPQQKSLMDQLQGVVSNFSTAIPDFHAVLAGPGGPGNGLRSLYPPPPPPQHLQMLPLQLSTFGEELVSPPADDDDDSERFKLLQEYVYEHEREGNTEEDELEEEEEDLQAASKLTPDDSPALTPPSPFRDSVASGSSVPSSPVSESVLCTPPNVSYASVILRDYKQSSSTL
Assay summary: Antagonist activity at human mGluR1 expressed in human Chem-3 cells assessed as inhibition of L-glutamate-induced calcium release at 10 uM by calcium-5 reagent-based fluorescence assay relative to control
Format: functional, cell-based
Property name: inhibition (%)
Write the number in % without appending the unit.

Below: 4 compounds and their reported inhibition.
> print(dat)
                              sample.smiles  property.name  measurement
1  Cc1ccc(C(=O)N2CCc3c(sc(NCc4ccccc4)c3C#N)C2)cc1     inhibition         69.7
2  Cc1ccc(C(=O)N2CCc3c(sc(NCc4ccc(F)cc4)c3C#N)C2)cc1     inhibition         46.6
3  CC(C)c1cc(C(=O)N2CCc3c(sc(NCc4ccccc4)c3C#N)C2)[nH]n1     inhibition         54.4
4  Cc1cc(C(=O)N2CCc3c(sc(NCc4ccccc4)c3C#N)C2)[nH]n1     inhibition         71.2

Proceed to the following item.
## Input Given `Cc1cccc(C(=O)N2CCc3c(sc(NCc4ccccc4)c3C#N)C2)c1` , state its recorded inhibition.
## Output 73.5

====

Assay summary: Ratio of drug level in brain to plasma in Sprague-Dawley rat at 10 mg/kg, po measured at 2 hrs by LC-MS/MS analysis
Assay type: ADME, organism-based
Set-up: dose 10 mg/kg, route oral
Condition notes: read-out: BPR
Property name: Kp at 2 h
Give the value as a plain number.

## Input Given `Cc1cc(C(=O)N2CCc3c(sc(NCc4ccccc4)c3C#N)C2)[nH]n1` , state its recorded Kp at 2 h.
## Output 0.13
